Measured peptide microarray binding signal, listed per entry.
# Tested on: HaloTag-ING2 PHD (mouse Ing2 200-280)
# Protocol text: peptide microarray binding signal (635 nm), min-max normalized on array (fraction of array maximum); higher = stronger binding
# Protocol conditions: peptide region: Unmod H1 variant; binder concentration: 10 nM
Quantity kind: peptide microarray binding signal

Binder: KPKKATGAATPKK [Unmod H1 variant K P K K A T G A A T P K K]
Experimental value: 0.00394
--
Binder: TLVQTKGTGASGS [Unmod H1 variant T L V Q T K G T G A S G S]
Experimental value: 0.00734
--
Binder: PPVSELITKAVAA [Unmod H1 variant P P V S E L I T K A V A A]
Experimental value: 0.00382
--
Binder: PAGPSVSELIVQA [Unmod H1 variant P A G P S V S E L I V Q A]
Experimental value: 0.00203
--
Binder: ERGGVSLAALKKA [Unmod H1 variant E R G G V S L A A L K K A]
Experimental value: 0.0122
--
Binder: AAGAKKAKSPKKA [Unmod H1 variant A A G A K K A K S P K K A]
Experimental value: 0.00334
--
Binder: AKPKRAKASKKST [Unmod H1 variant A K P K R A K A S K K S T]
Experimental value: 0.00334
--
Binder: AEKNRAGSSRQSI [Unmod H1 variant A E K N R A G S S R Q S I]
Experimental value: 0.00495
--
Binder: TKKEIKKVATPKK [Unmod H1 variant T K K E I K K V A T P K K]
Experimental value: 0.00185
--
Binder: APAPAEKTPVKKK [Unmod H1 variant A P A P A E K T P V K K K]
Experimental value: 0.00466
--
Binder: KPKATPVKKAKKK [Unmod H1 variant K P K A T P V K K A K K K]
Experimental value: 0.00209
--
Binder: AKAVKPKAAKPKT [Unmod H1 variant A K A V K P K A A K P K T]
Experimental value: 0.00304
--
Binder: ALAAAGYDVEKNN [Unmod H1 variant A L A A A G Y D V E K N N]
Experimental value: 0.00991
